Target: α5β1 integrin, P08648
Sequence (P08648 42-1049, chain 1 of 2): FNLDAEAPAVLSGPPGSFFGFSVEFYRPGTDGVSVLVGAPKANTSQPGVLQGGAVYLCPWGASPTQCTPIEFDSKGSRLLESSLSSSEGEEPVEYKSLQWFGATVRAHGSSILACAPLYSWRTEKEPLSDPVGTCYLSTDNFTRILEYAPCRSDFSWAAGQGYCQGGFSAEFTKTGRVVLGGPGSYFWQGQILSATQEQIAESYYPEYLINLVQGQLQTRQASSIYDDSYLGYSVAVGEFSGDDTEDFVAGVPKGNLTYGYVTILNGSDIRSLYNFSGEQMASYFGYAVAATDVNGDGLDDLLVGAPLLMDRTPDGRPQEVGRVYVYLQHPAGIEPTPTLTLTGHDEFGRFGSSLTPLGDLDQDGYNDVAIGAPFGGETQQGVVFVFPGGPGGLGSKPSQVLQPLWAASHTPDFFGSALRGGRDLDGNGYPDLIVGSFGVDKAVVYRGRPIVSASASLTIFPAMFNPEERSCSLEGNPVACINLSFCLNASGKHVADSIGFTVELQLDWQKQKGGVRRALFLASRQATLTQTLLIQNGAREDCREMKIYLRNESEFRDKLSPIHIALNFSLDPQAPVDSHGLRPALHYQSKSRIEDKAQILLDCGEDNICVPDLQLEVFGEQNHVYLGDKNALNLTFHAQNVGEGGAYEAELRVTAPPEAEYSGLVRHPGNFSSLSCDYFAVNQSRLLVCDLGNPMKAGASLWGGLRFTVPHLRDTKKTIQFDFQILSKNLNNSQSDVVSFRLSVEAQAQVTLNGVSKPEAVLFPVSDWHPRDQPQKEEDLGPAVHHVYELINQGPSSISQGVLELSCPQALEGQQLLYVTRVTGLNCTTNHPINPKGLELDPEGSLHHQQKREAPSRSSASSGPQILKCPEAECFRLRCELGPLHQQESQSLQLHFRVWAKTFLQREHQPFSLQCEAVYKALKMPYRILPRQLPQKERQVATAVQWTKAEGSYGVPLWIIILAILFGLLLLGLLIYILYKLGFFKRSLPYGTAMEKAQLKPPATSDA
Sequence (P05556 21-798, chain 2 of 2, further chain): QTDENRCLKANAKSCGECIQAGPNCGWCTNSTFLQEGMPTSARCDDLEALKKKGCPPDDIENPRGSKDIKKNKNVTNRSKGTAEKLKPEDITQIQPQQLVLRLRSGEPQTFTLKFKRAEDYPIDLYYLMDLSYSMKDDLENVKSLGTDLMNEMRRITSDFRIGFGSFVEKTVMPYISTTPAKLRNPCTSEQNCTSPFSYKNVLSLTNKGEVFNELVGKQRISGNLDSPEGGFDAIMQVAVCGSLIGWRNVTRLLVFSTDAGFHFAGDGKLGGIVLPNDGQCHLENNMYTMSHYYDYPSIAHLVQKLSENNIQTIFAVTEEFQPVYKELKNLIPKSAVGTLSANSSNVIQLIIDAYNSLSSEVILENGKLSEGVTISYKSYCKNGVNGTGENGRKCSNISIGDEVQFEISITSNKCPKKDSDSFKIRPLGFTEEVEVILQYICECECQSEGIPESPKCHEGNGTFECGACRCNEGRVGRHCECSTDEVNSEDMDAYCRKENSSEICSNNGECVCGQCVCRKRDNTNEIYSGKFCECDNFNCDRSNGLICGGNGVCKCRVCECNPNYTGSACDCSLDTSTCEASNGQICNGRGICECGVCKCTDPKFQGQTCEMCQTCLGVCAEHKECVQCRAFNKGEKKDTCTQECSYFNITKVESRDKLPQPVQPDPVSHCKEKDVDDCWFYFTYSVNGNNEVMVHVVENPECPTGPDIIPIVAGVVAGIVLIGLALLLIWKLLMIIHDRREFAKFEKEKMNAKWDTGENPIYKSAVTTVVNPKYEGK
Assay: inhibition of adhesion of K562 cells to fibronectin
For each entry below, report its IC50 value.

In [3]: df
Out[3]:
                                     binder  propertymeasured  result
0  CTTGPCCRQCKLKPAGTTCWKTSLTSHYCTGKSCDCPLYPG (modifications not checked) [obtustatin]              IC50  > 5 µM

Ask: Name the reported IC50 value associated with the binder CTTGPCCRQCKLKPAGTTCWKTSRTSHYCTGKSCDCPVYQG (modifications not checked) [viperisrastatin]
Reply: > 10 µM
